Source listed as patent US20080293644A1.

Molecular target: DP-IV (Homo sapiens)
Construct: DP-IV also exists as a soluble circulating form in plasma; from tissue; host or cells: human plasma
Sequence (P27487 39-766 limits assumed): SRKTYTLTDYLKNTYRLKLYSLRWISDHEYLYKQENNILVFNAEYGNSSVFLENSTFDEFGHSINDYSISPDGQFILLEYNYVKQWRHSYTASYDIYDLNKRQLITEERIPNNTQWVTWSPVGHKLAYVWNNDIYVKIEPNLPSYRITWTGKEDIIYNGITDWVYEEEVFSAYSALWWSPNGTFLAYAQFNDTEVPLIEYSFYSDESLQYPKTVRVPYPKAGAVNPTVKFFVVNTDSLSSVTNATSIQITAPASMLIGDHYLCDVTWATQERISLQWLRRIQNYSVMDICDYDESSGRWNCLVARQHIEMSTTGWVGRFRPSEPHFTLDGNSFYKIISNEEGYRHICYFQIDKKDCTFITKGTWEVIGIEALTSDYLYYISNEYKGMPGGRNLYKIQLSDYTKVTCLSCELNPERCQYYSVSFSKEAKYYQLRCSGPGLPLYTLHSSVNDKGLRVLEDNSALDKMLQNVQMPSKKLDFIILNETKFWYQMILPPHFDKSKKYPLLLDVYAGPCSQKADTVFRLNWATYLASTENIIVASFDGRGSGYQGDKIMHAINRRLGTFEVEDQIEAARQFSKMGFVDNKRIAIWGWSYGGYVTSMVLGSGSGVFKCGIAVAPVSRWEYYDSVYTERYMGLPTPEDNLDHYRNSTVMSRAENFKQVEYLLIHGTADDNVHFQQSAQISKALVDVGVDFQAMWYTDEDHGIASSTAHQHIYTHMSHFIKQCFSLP
Assay: DP-IV activity colorimetric assay (Gly-Pro-4-NA hydrolysis, 405 nm) in human plasma
Format: biochemical
Conditions: unspecific enzyme inhibitors and solvents at 100 mM; human plasma
Output t for %-Inhibition DP-IV not less than 20%; output f otherwise.

>  <Compound>
O=C(O)CN(CCN(CC(=O)O)CC(=O)O)CC(=O)O

>  <Assigned category>
t

$$$$
>  <Compound>
[Zn+2]

>  <Assigned category>
f

$$$$
>  <Compound>
Cl.NCCN [Ethylendiamine•HCl]

>  <Assigned category>
f

$$$$
>  <Compound>
C[S+](C)[O-]

>  <Assigned category>
t

$$$$
>  <Compound>
OCCS

>  <Assigned category>
f

$$$$
>  <Compound>
C[CH2][Hg][S]c1ccccc1C(=O)[O-].[Na+]

>  <Assigned category>
f

$$$$
>  <Compound>
Cn1ccnc1S

>  <Assigned category>
f

$$$$
